Where do these numbers come from? They come from patent US12084523.

TARGET_UNDER_TEST: T1, biotin-^K48Ub2 (chemically synthesized K48-linked di-ubiquitin, biotin on the distal Ub) (UniProt P0CG48 1-76, isopeptide bond from the C-terminus of the distal Ub to Lys48 of the proximal Ub; biotin at the N-terminus of the distal Ub)
T1 construct: mature; also called Lys48-linked ubiquitin dimer
PROTOCOL_DESCRIPTION: SPR, K48-Ub2; mClBz anchor; wildtype J08, no mutations
pKd: −log10 of the molar value. Starred links: 1 amine or outer side, 2 acyl side, 3 side chain; linkers in the order of their positions; H or OH if unused. Positions of bridges follow the written chain, without caps; N, C: chain ends. No end group written: not given here. mClBz = N-terminal chlorobenzyl thioether anchor (M*) that cyclises onto the Cys, the meta form of the mClBz/pClBz pair, O=C(c1cccc(C[*:3])c1)[*:2]
MEASURED_QUANTITY: pKd

binder="mClBz-GWFDDLYLFVAYCG (bridge N-13; not fully specified (bridges), also called J08 (M* = mClBz)) [J08_mClBz]" measured_quantity=pKd measured_value=8.00
